Property: IC50; scope: individual compounds
Target: human HDAC1 (Homo sapiens, UniProt Q13547)
Construct: FLAG; made in house; host or cells: 293T cells (transient transfection, anti-FLAG immunoprecipitation, FLAG peptide elution)
Sequence (Q13547 whole entry): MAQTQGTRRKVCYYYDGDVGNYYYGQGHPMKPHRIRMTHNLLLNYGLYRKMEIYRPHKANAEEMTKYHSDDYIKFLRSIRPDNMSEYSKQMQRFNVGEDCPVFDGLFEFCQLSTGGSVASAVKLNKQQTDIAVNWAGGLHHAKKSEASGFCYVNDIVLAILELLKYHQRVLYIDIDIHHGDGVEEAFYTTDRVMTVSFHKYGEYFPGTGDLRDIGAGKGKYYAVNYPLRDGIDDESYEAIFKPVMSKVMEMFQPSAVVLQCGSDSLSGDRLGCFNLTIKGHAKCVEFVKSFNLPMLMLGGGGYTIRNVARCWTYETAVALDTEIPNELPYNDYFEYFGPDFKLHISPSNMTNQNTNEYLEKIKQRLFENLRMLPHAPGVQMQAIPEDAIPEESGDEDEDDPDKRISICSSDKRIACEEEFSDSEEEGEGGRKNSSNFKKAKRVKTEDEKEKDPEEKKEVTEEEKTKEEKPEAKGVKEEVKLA
Experiment: In vitro HDAC inhibition activity, [3H]-acetylated histone substrate, HDAC1
Assay type: biochemical
Conditions: Table 2; homodimer
*1 amine or outer side, *2 acyl side, *3 side chain or, on linkers, in order; H or OH if unused. Where a SMILES comes first, the peptide text is derived from it. Bridges are numbered along the chain shown (N, C = ends). Roman numbers before positions name the chains, in order. [ ]: non-standard residue; d: D form. hNle(7-SH) = O=C([C@H](CCCCCS[*:3])N[*:1])[*:2]; Pip = O=C(O)[C@@H]1CCCCN1
readout: IC50 (nM)

compound="CC[C@H](C)[C@@H]1NC(=O)[C@@H](Cc2ccc(OC)cc2)NC(=O)[C@H](CCCCCSSCCCCC[C@@H]2NC(=O)[C@@H]3CCCN3C(=O)[C@H]([C@@H](C)CC)NC(=O)[C@@H](Cc3ccc(OC)cc3)NC2=O)NC(=O)[C@@H]2CCCN2C1=O [SCOP 296, cyclo(-L-Am7(-)-D-Tyr(Me)-L-Ile-L-Pro-)] (I: cyclo([hNle(7-SH)][dY](Me)IP) / II: cyclo([hNle(7-SH)][dY](Me)IP); disulfide I:1-II:1)" readout=IC50 recorded_number=763
compound="CC[C@H](C)[C@@H]1NC(=O)[C@@H](Cc2ccc(OC)cc2)NC(=O)[C@H](CCCCCSSCCCCC[C@@H]2NC(=O)[C@H]3CCCN3C(=O)[C@H]([C@@H](C)CC)NC(=O)[C@@H](Cc3ccc(OC)cc3)NC2=O)NC(=O)[C@H]2CCCN2C1=O [SCOP 304, cyclo(-L-Am7(-)-D-Tyr(Me)-L-Ile-D-Pro-)] (I: cyclo([hNle(7-SH)][dY](Me)I[dP]) / II: cyclo([hNle(7-SH)][dY](Me)I[dP]); disulfide I:1-II:1)" readout=IC50 recorded_number=142
compound="CC[C@H](C)[C@@H]1NC(=O)[C@@H](Cc2ccc(OC)cc2)NC(=O)[C@H](CCCCCCCSSCCCCCCC[C@@H]2NC(=O)[C@H]3CCCN3C(=O)[C@H]([C@@H](C)CC)NC(=O)[C@@H](Cc3ccc(OC)cc3)NC2=O)NC(=O)[C@H]2CCCN2C1=O [SCOP 308, cyclo(-L-Am9(-)-D-Tyr(Me)-L-Ile-D-Pro-]" readout=IC50 recorded_number=983
compound="CC[C@H](C)[C@@H]1NC(=O)[C@@H](Cc2ccc(OC)cc2)NC(=O)[C@H](CCCCCSSCCCCC[C@@H]2NC(=O)[C@@H]3CCCCN3C(=O)[C@H]([C@@H](C)CC)NC(=O)[C@@H](Cc3ccc(OC)cc3)NC2=O)NC(=O)[C@@H]2CCCCN2C1=O [SCOP 298, cyclo(-L-Am7(-)-D-Tyr(Me)-L-Ile-L-Pip-] (I: cyclo([hNle(7-SH)][dY](Me)I[Pip]) / II: cyclo([hNle(7-SH)][dY](Me)I[Pip]); disulfide I:1-II:1)" readout=IC50 recorded_number=114

====

Target: human HDAC4 (Homo sapiens, UniProt P56524)
Construct: FLAG; made in house; host or cells: 293T cells (transient transfection, anti-FLAG immunoprecipitation, FLAG peptide elution)
Sequence (O15379 whole entry partner): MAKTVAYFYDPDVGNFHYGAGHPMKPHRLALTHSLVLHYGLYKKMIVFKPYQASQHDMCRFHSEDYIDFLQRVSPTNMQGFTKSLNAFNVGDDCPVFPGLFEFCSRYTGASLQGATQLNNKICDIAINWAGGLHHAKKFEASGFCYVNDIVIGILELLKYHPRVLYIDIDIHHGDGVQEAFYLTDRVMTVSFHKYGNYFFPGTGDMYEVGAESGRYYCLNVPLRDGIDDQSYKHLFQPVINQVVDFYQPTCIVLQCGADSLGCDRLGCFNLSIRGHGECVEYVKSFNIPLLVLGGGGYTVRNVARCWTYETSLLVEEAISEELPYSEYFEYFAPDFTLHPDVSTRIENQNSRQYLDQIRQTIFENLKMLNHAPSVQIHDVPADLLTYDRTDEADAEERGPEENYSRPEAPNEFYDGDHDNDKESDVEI
Sequence (P56524 whole entry): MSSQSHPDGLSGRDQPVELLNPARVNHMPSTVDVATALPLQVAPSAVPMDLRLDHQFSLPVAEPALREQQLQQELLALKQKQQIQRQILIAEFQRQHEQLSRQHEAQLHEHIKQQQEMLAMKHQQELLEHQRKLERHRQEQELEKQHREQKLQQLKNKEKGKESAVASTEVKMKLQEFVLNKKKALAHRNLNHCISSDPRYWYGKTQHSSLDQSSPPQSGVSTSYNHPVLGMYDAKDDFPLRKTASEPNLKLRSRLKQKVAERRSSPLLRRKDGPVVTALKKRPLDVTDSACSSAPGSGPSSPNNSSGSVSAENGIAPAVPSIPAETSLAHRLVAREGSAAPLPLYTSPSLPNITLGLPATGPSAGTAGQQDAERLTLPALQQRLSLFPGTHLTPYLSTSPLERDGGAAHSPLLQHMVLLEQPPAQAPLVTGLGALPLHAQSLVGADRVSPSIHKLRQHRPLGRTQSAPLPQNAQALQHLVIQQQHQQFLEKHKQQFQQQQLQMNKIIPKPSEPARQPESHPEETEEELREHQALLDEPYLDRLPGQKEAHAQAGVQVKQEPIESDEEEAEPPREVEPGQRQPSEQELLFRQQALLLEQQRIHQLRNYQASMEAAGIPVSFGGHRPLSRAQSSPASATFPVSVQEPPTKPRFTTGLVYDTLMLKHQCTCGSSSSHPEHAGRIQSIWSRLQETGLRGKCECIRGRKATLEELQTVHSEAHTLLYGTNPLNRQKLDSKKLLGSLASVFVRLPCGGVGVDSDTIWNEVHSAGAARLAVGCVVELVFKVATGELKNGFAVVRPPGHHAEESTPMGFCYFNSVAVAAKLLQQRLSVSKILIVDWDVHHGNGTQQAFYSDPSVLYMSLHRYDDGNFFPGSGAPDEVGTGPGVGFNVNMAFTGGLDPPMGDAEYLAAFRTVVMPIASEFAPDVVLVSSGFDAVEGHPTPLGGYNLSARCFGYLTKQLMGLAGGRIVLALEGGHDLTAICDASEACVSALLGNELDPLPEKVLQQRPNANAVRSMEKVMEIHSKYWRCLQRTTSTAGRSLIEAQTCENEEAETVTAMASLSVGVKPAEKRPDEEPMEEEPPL
Test: In vitro HDAC inhibition activity, [3H]-acetylated histone substrate, HDAC4
Assay type: biochemical
Settings: Table 2; homodimer
*1 amine or outer side, *2 acyl side, *3 side chain or, on linkers, in order; H or OH if unused. Where a SMILES comes first, the peptide text is derived from it. Bridges are numbered along the chain shown (N, C = ends). Roman numbers before positions name the chains, in order. [ ]: non-standard residue; d: D form. hNle(7-SH) = O=C([C@H](CCCCCS[*:3])N[*:1])[*:2]; dPip = O=C(O)[C@H]1CCCCN1
readout: IC50 (nM)

molecule="CC[C@H](C)[C@@H]1NC(=O)[C@@H](Cc2ccc(OC)cc2)NC(=O)[C@H](CCCCCSSCCCCC[C@@H]2NC(=O)[C@H]3CCCCN3C(=O)[C@H]([C@@H](C)CC)NC(=O)[C@@H](Cc3ccc(OC)cc3)NC2=O)NC(=O)[C@H]2CCCCN2C1=O [SCOP 300, cyclo(-L-Am7(-)-D-Tyr(Me)-L-Ile-D-Pip-] (I: cyclo([hNle(7-SH)][dY](Me)I[dPip]) / II: cyclo([hNle(7-SH)][dY](Me)I[dPip]); disulfide I:1-II:1)" target_or_system="human HDAC4 (Homo sapiens, UniProt P56524)" readout=IC50 recorded_number=36.2
molecule="CC[C@H](C)[C@@H]1NC(=O)[C@@H](Cc2ccc(OC)cc2)NC(=O)[C@H](CCCCCCCSSCCCCCCC[C@@H]2NC(=O)[C@H]3CCCN3C(=O)[C@H]([C@@H](C)CC)NC(=O)[C@@H](Cc3ccc(OC)cc3)NC2=O)NC(=O)[C@H]2CCCN2C1=O [SCOP 308, cyclo(-L-Am9(-)-D-Tyr(Me)-L-Ile-D-Pro-]" target_or_system="human HDAC4 (Homo sapiens, UniProt P56524)" readout=IC50 recorded_number=505
molecule="CC[C@H](C)[C@@H]1NC(=O)[C@@H](Cc2ccc(OC)cc2)NC(=O)[C@H](CCCCCSSCCCCC[C@@H]2NC(=O)[C@@H]3CCCN3C(=O)[C@H]([C@@H](C)CC)NC(=O)[C@@H](Cc3ccc(OC)cc3)NC2=O)NC(=O)[C@@H]2CCCN2C1=O [SCOP 296, cyclo(-L-Am7(-)-D-Tyr(Me)-L-Ile-L-Pro-)] (I: cyclo([hNle(7-SH)][dY](Me)IP) / II: cyclo([hNle(7-SH)][dY](Me)IP); disulfide I:1-II:1)" target_or_system="human HDAC4 (Homo sapiens, UniProt P56524)" readout=IC50 recorded_number=222
